# SUBJECT OF TEST: Single-strand selective monofunctional uracil DNA glycosylase (Homo sapiens)
# MEASUREMENT CONTEXT: Compound Concentration 1.0 uM, Hit No
# Description: Inhibition of SMUG1 by quantifying inhibition of SMUG1-mediated cleavage and dissociation of quenched duplex DNA oligonucleotides, measured as fluorescence at 594 nm. To generate a functional strand incision and increase turn-over this assay is coupled to APE1.
MEASURED PROPERTY: inhibition (%)

INSERT INTO results (structure_notation, subject_of_test, meas_value) VALUES
  ('O=C(Nc1ccc(Oc2ccc(F)cc2)cc1)N1CCc2ncccc2[C@H]1c1ccc(F)cc1', 'Single-strand selective monofunctional uracil DNA glycosylase (Homo sapiens)', 3.93),
  ('CN(C)C(=O)/C(C#N)=C/c1ccc(-c2nc3cnc4c(ccn4C)c3n2C2CCCCC2)o1', 'Single-strand selective monofunctional uracil DNA glycosylase (Homo sapiens)', 2.69),
  ('CC(C)c1cc(Nc2nc(N3CCC[C@H](N)C3)ncc2C(N)=O)cc(C(C)C)n1', 'Single-strand selective monofunctional uracil DNA glycosylase (Homo sapiens)', 11.3),
  ('Cc1c(NC(=O)c2cc(C(N)=O)nc3cc(F)ccc23)c(C(F)(F)F)nn1Cc1ccc(C(C)(C)C)cc1', 'Single-strand selective monofunctional uracil DNA glycosylase (Homo sapiens)', 16.4),
  ('Nc1c(C(=O)NCc2ccc(C(=O)NCCCC3CCCCC3)cc2)cnn1-c1ccccc1', 'Single-strand selective monofunctional uracil DNA glycosylase (Homo sapiens)', 3.4),
  ('CC(=O)c1c(C)c2cnc(Nc3ccc(N4CCNCC4)cn3)nc2n(C2CCCC2)c1=O', 'Single-strand selective monofunctional uracil DNA glycosylase (Homo sapiens)', 19.2),
  ('O=C(c1ccc(F)cc1)N1CC(COc2ccc(Br)cc2)(C(=O)O)C1', 'Single-strand selective monofunctional uracil DNA glycosylase (Homo sapiens)', 15.2),
  ('CC[C@@H]1[C@H](F)C(=O)N[C@@H]1COc1nccc2cc(C(N)=O)c(OC)cc12', 'Single-strand selective monofunctional uracil DNA glycosylase (Homo sapiens)', 2.52),
  ('Cc1ccc(C(=O)Nc2cccc(C(F)(F)F)c2)cc1Nc1nc(-c2cccnc2)nc2c1cnn2C', 'Single-strand selective monofunctional uracil DNA glycosylase (Homo sapiens)', 23.8);

###

# SUBJECT OF TEST: Endonuclease III-like protein 1 (Homo sapiens)
# Sequence (whole entry): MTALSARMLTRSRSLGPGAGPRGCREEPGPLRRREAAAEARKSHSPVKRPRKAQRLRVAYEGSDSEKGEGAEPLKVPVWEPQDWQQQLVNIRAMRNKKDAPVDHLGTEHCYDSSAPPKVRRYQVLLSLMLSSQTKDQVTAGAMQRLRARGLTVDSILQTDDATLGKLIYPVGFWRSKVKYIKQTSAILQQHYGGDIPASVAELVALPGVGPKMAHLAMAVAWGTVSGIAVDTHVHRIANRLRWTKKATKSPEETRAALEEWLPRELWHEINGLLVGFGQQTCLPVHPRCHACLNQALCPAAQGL
# MEASUREMENT CONTEXT: Compound Concentration 10.0 uM, Hit No
# Description: Inhibition of NTHL1 by quantifying inhibition of NTHL1-mediated cleavage and dissociation of quenched duplex DNA oligonucleotides, measured as fluorescence at 594 nm.
// false (0) strictly below 6% in inhibition; true (1) otherwise

INSERT INTO results (compound, label) VALUES
  ('NCC(O)c1ccc(O)cc1 (stereo not given)', 'false (0)'),
  ('C[C@H](NC(=O)[C@H](Cc1ccccc1)NC(=O)[C@H](CCC(N)=O)NC(=O)CNC(=O)[C@@H]1CCCN1C(=O)[C@H](Cc1ccccc1)NC(=O)[C@@H](N)Cc1ccc(O)cc1)C(=O)N[C@@H](Cc1ccccc1)C(=O)N[C@@H](CO)C(=O)O', 'true (1)'),
  ('CN(C)CC[C@@H](c1ccc(Cl)cc1)c1ccccn1', 'true (1)'),
  ('CC(=O)Nc1nc(CN2CCC[C@H](Cc3cc(C)nc(C)c3)C2)cs1', 'true (1)'),
  ('O=C(NNS(=O)(=O)c1ccccc1F)c1cc(F)cc(-c2ccccn2)c1', 'true (1)');

###

Entries and their measured inhibition follow.
# SUBJECT OF TEST: N-glycosylase/DNA lyase (Homo sapiens) (UniProt O15527)
# Sequence (O15527 whole entry): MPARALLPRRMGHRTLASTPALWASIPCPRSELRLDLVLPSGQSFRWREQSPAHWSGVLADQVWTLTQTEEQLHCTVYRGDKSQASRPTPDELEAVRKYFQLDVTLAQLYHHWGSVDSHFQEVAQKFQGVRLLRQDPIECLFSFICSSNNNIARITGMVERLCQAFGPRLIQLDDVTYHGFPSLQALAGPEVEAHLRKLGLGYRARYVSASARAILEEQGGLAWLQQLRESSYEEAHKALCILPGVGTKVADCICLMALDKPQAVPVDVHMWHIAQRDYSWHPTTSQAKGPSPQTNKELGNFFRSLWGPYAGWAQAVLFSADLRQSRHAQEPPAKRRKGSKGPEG
# MEASUREMENT CONTEXT: Compound Concentration 10.0 uM, Hit No
# Description: Inhibition of OGG1 by quantifying inhibition of OGG1-mediated cleavage and dissociation of quenched duplex DNA oligonucleotides, measured as fluorescence at 594 nm. To generate a functional strand incision and increase turn-over this assay is coupled to APE1.
MEASURED PROPERTY: inhibition

INSERT INTO measurements (structure_notation, meas_value) VALUES
  ('CN1C(=O)[C@@H](NC(=O)c2cc3ccccc3[nH]2)N=C(c2ccccc2)c2ccccc21', '-4.56%'),
  ('O=C(O)Cn1c(C(=O)Nc2nc(-c3ccccc3Cl)cs2)cc2ccccc21', '6.47%'),
  ('CO[C@H]1CC[C@@H](C(=O)c2ccc3nc4c(cc3c2)CCCO4)CC1', '-3.26%'),
  ('CC1(C)CCC(C)(C)c2cc(NC(=O)c3ccc(C(=O)O)cc3)ccc21', '31.6%'),
  ('CN1CCC(c2c[nH]c3ccc(O)cc23)CC1', '-0.678%');

###

# SUBJECT OF TEST: Uracil-DNA glycosylase (Homo sapiens)
# MEASUREMENT CONTEXT: Compound Concentration 1.0 uM, Hit No
# Description: Inhibition of UNG by quantifying inhibition of UNG-mediated cleavage and dissociation of quenched duplex DNA oligonucleotides, measured as fluorescence at 594 nm. To generate a functional strand incision and increase turn-over this assay is coupled to APE1.
MEASURED PROPERTY: inhibition (%)

INSERT INTO measurements (structure_notation, subject_of_test, unit_of_measure, meas_value) VALUES
  ('CCS(=O)(=O)c1cc2cc(C[C@@](O)(CC(C)(C)c3ccc(F)cc3C(N)=O)C(F)(F)F)[nH]c2cn1', 'Uracil-DNA glycosylase (Homo sapiens)', '%', -1.88),
  ('C[C@@H]1CN(c2cc(-c3n[nH]c4ccc(OC5(C)CC5)cc34)ncn2)C[C@H](C)O1', 'Uracil-DNA glycosylase (Homo sapiens)', '%', 7.33),
  ('COc1ccccc1Nc1nc(-c2nn(Cc3c(F)cc(OCCCO)cc3F)c3ccccc23)ncc1OC', 'Uracil-DNA glycosylase (Homo sapiens)', '%', 0.477),
  ('COc1ncc(-c2ccc3nccc(-c4ccnnc4)c3c2)cc1NS(=O)(=O)c1ccc(F)cc1F', 'Uracil-DNA glycosylase (Homo sapiens)', '%', -3.82),
  ('CNC(=O)c1ccc(Nc2ncc(C(F)(F)F)c(NCc3nccnc3N(C)S(C)(=O)=O)n2)cc1', 'Uracil-DNA glycosylase (Homo sapiens)', '%', -2.6),
  ('Cc1cc(F)c(C(=O)Nc2cccc(-c3nncn3C(C)C)n2)cc1-n1cnc(C2CC2)c1', 'Uracil-DNA glycosylase (Homo sapiens)', '%', -0.67),
  ('Nc1cnc(N2CCc3cc(S(=O)(=O)Nc4c(F)cc(Cl)cc4F)cc(N4CCCC4=O)c32)nc1', 'Uracil-DNA glycosylase (Homo sapiens)', '%', -1.59),
  ('O=C(Cc1ccccc1)Nc1nnc(N2C[C@H]3C[C@@H]2CN3c2cccnn2)s1', 'Uracil-DNA glycosylase (Homo sapiens)', '%', 2.12),
  ('CN(C)C(=O)Cn1cc(-c2nc([C@@](C)(c3ccc(-c4cnc(N)nc4)cc3)C3CC3)no2)cn1', 'Uracil-DNA glycosylase (Homo sapiens)', '%', 6.25),
  ('O=C(NCCCC1CCCCC1)c1ccc(CNC(=O)c2cnn(-c3ccccc3)c2C(F)(F)F)cc1', 'Uracil-DNA glycosylase (Homo sapiens)', '%', -2.97),
  ('CCC(=O)N1CCN(c2ccc(-n3c(=O)ccc4cnc5ccc(-c6cnc7ccccc7c6)cc5c43)cc2C(F)(F)F)CC1', 'Uracil-DNA glycosylase (Homo sapiens)', '%', 3.95),
  ('CCc1ccccc1C(=O)Nc1n[nH]c2c(C)c(F)c(C3C(C#N)=C(C)N(C)C(C)=C3C#N)cc12', 'Uracil-DNA glycosylase (Homo sapiens)', '%', 1.06),
  ('CC(C)c1cc(Nc2nc(N3CCC[C@H](N)C3)ncc2C(N)=O)cc(C(C)C)n1', 'Uracil-DNA glycosylase (Homo sapiens)', '%', 1.59),
  ('COCCOc1nc(-c2ccc(Cl)nc2)nc2c1CN(C(=O)c1ncn3ccccc13)CC2', 'Uracil-DNA glycosylase (Homo sapiens)', '%', -0.22),
  ('CN(C)C(=O)Cn1cc(-c2ccc(-c3cncc4ccccc34)cc2)cn1', 'Uracil-DNA glycosylase (Homo sapiens)', '%', 0.741),
  ('Cc1cccc(-c2[nH]c(CNc3ccccc3F)nc2-c2ccc3ncnn3c2)n1', 'Uracil-DNA glycosylase (Homo sapiens)', '%', -5.91),
  ('Cc1ccc(-c2cnc([C@@]3(O)CC[C@H](C(=O)O)C(C)(C)C3)s2)cc1Nc1cccc(C(F)(F)F)n1', 'Uracil-DNA glycosylase (Homo sapiens)', '%', -2.23),
  ('CC(C)(O)c1ccc(N2Cc3c(ccnc3-c3ccc(F)cc3OCC(F)(F)F)C2=O)cc1', 'Uracil-DNA glycosylase (Homo sapiens)', '%', 3.14);

###

Listing: inhibition of selected compounds
# SUBJECT OF TEST: Methyl-CpG-binding domain protein 4 (Homo sapiens) (UniProt O95243)
# Sequence (O95243 whole entry, the tested form may be a part): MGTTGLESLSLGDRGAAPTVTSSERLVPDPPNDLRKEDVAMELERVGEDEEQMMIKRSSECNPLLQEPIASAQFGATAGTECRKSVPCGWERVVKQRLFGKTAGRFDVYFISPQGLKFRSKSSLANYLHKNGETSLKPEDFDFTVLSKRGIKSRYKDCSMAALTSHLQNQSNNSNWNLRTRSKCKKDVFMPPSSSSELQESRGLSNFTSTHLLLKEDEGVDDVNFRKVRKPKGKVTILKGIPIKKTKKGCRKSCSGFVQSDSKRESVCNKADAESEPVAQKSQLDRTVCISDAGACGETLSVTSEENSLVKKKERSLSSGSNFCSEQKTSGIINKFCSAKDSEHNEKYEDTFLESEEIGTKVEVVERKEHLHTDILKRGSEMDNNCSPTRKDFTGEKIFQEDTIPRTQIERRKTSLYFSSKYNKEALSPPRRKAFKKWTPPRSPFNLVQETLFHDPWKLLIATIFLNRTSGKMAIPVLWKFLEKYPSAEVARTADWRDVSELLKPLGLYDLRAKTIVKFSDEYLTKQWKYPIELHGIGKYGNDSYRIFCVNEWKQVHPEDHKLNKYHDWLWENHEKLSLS
# MEASUREMENT CONTEXT: Compound Concentration 1.0 uM, Hit No
# Description: Inhibition of MBD4 by quantifying inhibition of MBD4-mediated cleavage and dissociation of quenched duplex DNA oligonucleotides, measured as fluorescence at 594 nm. To generate a functional strand incision and increase turn-over this assay is coupled to APE1.
MEASURED PROPERTY: inhibition (%)

INSERT INTO assay_data (structure_notation, measured_property, unit_of_measure, meas_value) VALUES
  ('Cc1ccc(NC(=O)Nc2cc(C(F)(F)F)ccc2F)cc1Nc1ccc2c(c1)NC(=O)/C2=C\c1ccc[nH]1', 'inhibition', '%', -5.4),
  ('Cc1c[nH]c2nccc(Oc3c(F)cc(Nc4cc(Cl)nc(N)n4)cc3F)c12', 'inhibition', '%', 43.9),
  ('Cc1nc(-c2cn3c(n2)-c2ccc(-c4cnn(C(C)(C)C(N)=O)c4)cc2OCC3)n(C(C)C)n1', 'inhibition', '%', -2.34),
  ('CN1C(=O)c2sccc2N(C)c2nc(Nc3ccc(S(N)(=O)=O)cc3)ncc21', 'inhibition', '%', 27.4),
  ('CCC(=O)N1CCN(c2ccc(-n3c(=O)ccc4cnc5ccc(-c6cnc7ccccc7c6)cc5c43)cc2C(F)(F)F)CC1', 'inhibition', '%', -7.49),
  ('CC(=O)Nc1cccc(-n2c(=O)n(C3CC3)c(=O)c3c(Nc4ccc(I)cc4F)n(C)c(=O)c(C)c32)c1', 'inhibition', '%', 22.2),
  ('CN1CCN(C(=O)C(C)(C)c2ccc(C(=O)Nc3cn4cc(-c5cc(C(C)(C)C)cc(C(C)(C)C)c5)ccc4n3)cc2)CC1', 'inhibition', '%', -6.71),
  ('CC(C)c1cc(Nc2nc(N3CCC[C@H](N)C3)ncc2C(N)=O)cc(C(C)C)n1', 'inhibition', '%', -6.11);
